Every entry's value here was drawn from patent US20260166168A1.

target under test: T1, human DLL1 on 293T-hDLL1 cells (human, UniProt O00548 18-723)
T1 construct: whole, on cells; also called 293T-DLL1; HEK293T-hDLL1
T1 sequence (looked up): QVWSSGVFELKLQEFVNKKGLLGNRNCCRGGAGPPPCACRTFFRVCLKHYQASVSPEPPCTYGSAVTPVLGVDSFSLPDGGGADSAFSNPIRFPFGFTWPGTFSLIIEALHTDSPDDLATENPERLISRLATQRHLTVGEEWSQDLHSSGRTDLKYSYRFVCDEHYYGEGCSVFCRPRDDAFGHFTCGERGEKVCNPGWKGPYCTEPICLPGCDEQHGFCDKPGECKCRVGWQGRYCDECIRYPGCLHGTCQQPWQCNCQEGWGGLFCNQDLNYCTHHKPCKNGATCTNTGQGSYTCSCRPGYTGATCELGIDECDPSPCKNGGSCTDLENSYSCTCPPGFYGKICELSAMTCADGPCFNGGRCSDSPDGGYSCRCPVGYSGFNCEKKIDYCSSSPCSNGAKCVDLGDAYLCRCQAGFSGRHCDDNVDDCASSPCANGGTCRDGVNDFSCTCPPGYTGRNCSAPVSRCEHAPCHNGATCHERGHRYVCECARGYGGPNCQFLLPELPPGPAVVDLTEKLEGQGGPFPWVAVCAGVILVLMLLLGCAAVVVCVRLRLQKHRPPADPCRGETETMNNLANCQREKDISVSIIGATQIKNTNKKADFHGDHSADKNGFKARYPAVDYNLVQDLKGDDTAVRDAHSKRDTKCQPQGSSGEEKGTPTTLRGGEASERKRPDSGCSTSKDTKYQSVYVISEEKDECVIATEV
measurement protocol: flow cytometry on 293T-hDLL1 cells, antibody 20 µg/mL
Could you please report measured positive rate for the items listed next?
Give bare numbers, in %.

binder: murine antibody 59B10D3 (antibody, V domains shown, Murine antibody purified from hybridoma supernatant) VH: EVKLEESGGGLVQPGGSMKLSCAASGFTFSDAWMDWVRQSPEKGLEWIAEIRNKANNHATYYTESVKGRFTISRDDSKSSVYLQMISLRPEDTGIYYCTRNNYGSTWTYYAMDYWGQGTSVTVSS VL: DIQMTQTSSSLSASLGDRVTINCRASQDISNYLNWYQQKPDGTVKLLIYYTSRLHSGVPSRFSGSGSGTDYSLTISNLEHEDIATYFCQQGYTLPLTFGAGTNLELK
value units: %
reported value: 6.3

Could I get positive rate for every one of these entries?
1. murine antibody 55C11E4 (antibody, V domains shown, Murine antibody purified from hybridoma supernatant) VH: EVQLQQSGPVLVKPGASVKMSCKASGYTFTDYYMNWVKQSHGKSLEWIGVINPYNGGTNYSQKFKGKATLTVDKSSSTAYMELNSLTSEDSAVYYCARDSNYVGLLDYWGQGTSVTVSS VL: DIVLTQSPATLSVTPGDSVSLSCRASQSISNNLHWYQQKSHESPRLLIKYASQSISGIPSRFSGSGSGPDFTLSIDSVETEDFGVYFCQQSNSWPYTFGGGTKLEIK
2. murine antibody 6F11C10 (antibody, V domains shown, Murine antibody purified from hybridoma supernatant) VH: EVHLQQSGPVLVKPGPSVKISCKASGFTFTDYYMHWVKQSHGKSLEWIGLVYPYNGDISYNQKFKGKATLTVDTSSSTAYMELNSLTSEDSAVYYCARQGNYVNNAIDYWGQGTSVTVSS VL: DIVMTQSQKFMSTSVGDRVSISCKASQNVGNIIAWYQQKPGQSPKALIYLASYRYSGVPDRFTGSGSGTDFTLTINNVQSEDLAEYFCQQYSDSPYTFGSGTKLEI
3. murine antibody 87F7F10 (antibody, V domains shown, Murine antibody purified from hybridoma supernatant) VH: DVQLQESGPGLVKPSQSLSLTCSVTGYSITSDFYWNWIRQFPGNKLEWMGYITYDGSTNYDPSLKNRISITRDTSKNQFFLKLNSVTAEDTATYYCVYGDFNRHAMDYWGQGTSVTVSS VL: DIVMSQSPSSLAVSAGEKVTMSCRSSQSLFNSRTRKNYLAWYQQKPGQPPKVLIYWASTRESGVPDRFTGSGSGTDFTLTISSVQAEDLAVYYCEQSFYLFTFGTGTKLEI

## Result
1: 0.92; 2: 0.64; 3: 1.84
